Listing of entries alongside the reported relative viability.
Tested on: NCI-H1651
Test: relative viability (nuclei count vs DMSO), 5 days (fraction); higher = more cells survive
Details: first compound 2.53 µM
Output spec: single numeric token, no unit.

Use the examples below as a reference point.
{"Molecule": "C=C1C(=O)O[C@@H](CCCCCCCC)[C@@H]1C(=O)O [C-75] + O=C(CCCCCCC(=O)Nc1ccccc1)NO [Vorinostat] (partner 1 µM)", "Target entity": "NCI-H1651", "Measured property": "relative viability", "Test value": 0.522}
{"Molecule": "C=C1C(=O)O[C@@H](CCCCCCCC)[C@@H]1C(=O)O [C-75] + CC(=O)Nc1cccc(-n2c(=O)n(C3CC3)c(=O)c3c(Nc4ccc(I)cc4F)n(C)c(=O)c(C)c32)c1 [Trametinib] (partner 0.02 µM)", "Target entity": "NCI-H1651", "Measured property": "relative viability", "Test value": 0.515}
{"Molecule": "C=C1C(=O)O[C@@H](CCCCCCCC)[C@@H]1C(=O)O [C-75] + Nc1ncn([C@H]2C[C@H](O)[C@@H](CO)O2)c(=O)n1 [Decitabine] (partner 2 µM)", "Target entity": "NCI-H1651", "Measured property": "relative viability", "Test value": 0.381}
{"Molecule": "C=C1C(=O)O[C@@H](CCCCCCCC)[C@@H]1C(=O)O [C-75] + COc1cc2c(Oc3ccc(NC(=O)C4(C(=O)Nc5ccc(F)cc5)CC4)cc3F)ccnc2cc1OCCCN1CCOCC1 [Foretinib] (partner 0.25 µM)", "Target entity": "NCI-H1651", "Measured property": "relative viability", "Test value": 0.668}
{"Molecule": "C=C1C(=O)O[C@@H](CCCCCCCC)[C@@H]1C(=O)O [C-75] + Cc1cc(Nc2cc(N3CCN(C)CC3)nc(Sc3ccc(NC(=O)C4CC4)cc3)n2)n[nH]1 [Tozasertib] (partner 0.1 µM)", "Target entity": "NCI-H1651", "Measured property": "relative viability", "Test value": 0.688}
{"Molecule": "C=C1C(=O)O[C@@H](CCCCCCCC)[C@@H]1C(=O)O [C-75] + CCNC(=O)c1noc(-c2cc(C(C)C)c(O)cc2O)c1-c1ccc(CN2CCOCC2)cc1 [Luminespib] (partner 0.01 µM)", "Target entity": "NCI-H1651", "Measured property": "relative viability", "Test value": 0.672}
{"Molecule": "C=C1C(=O)O[C@@H](CCCCCCCC)[C@@H]1C(=O)O [C-75] + Nc1nc2[nH]cc(CCc3ccc(C(=O)N[C@@H](CCC(=O)O)C(=O)O)cc3)c2c(=O)[nH]1 [Pemetrexed] (partner 0.2 µM)", "Target entity": "NCI-H1651", "Measured property": "relative viability", "Test value": 0.53}
{"Molecule": "C=C1C(=O)O[C@@H](CCCCCCCC)[C@@H]1C(=O)O [C-75] + CC(=O)c1c(C)c2cnc(Nc3ccc(N4CCNCC4)cn3)nc2n(C2CCCC2)c1=O [Palbociclib] (partner 0.5 µM)", "Target entity": "NCI-H1651", "Measured property": "relative viability", "Test value": 0.476}

Q) Find the recorded relative viability belonging to Oc1nc(-c2ccc(C(F)(F)F)cc2)nc2c1CSCC2 [XAV939] + Nc1nc2[nH]cc(CCc3ccc(C(=O)N[C@@H](CCC(=O)O)C(=O)O)cc3)c2c(=O)[nH]1 [Pemetrexed] (partner 0.2 µM) and report it.
A) 0.4

Q) What measured relative viability goes with Oc1nc(-c2ccc(C(F)(F)F)cc2)nc2c1CSCC2 [XAV939] + CS(=O)(=O)N1CCN(Cc2cc3nc(-c4cccc5[nH]ncc45)nc(N4CCOCC4)c3s2)CC1 [Pictilisib] (partner 1 µM) ?
A) 0.638

Q) State the recorded relative viability for this entry: Oc1nc(-c2ccc(C(F)(F)F)cc2)nc2c1CSCC2 [XAV939] + CC1(C)CCC(c2ccc(Cl)cc2)=C(CN2CCN(c3ccc(C(=O)NS(=O)(=O)c4ccc(N[C@H](CCN5CCOCC5)CSc5ccccc5)c(S(=O)(=O)C(F)(F)F)c4)cc3)CC2)C1 [Navitoclax] (partner 0.5 µM)
A) 0.894

Q) Fill blank: measured relative viability of the molecule Oc1nc(-c2ccc(C(F)(F)F)cc2)nc2c1CSCC2 [XAV939] + Cc1cc(Nc2cc(N3CCN(C)CC3)nc(Sc3ccc(NC(=O)C4CC4)cc3)n2)n[nH]1 [Tozasertib] (partner 0.1 µM) is ____.
A) 0.639

Q) Which value of relative viability has been reported for Oc1nc(-c2ccc(C(F)(F)F)cc2)nc2c1CSCC2 [XAV939] + O=C(CCCCCCC(=O)Nc1ccccc1)NO [Vorinostat] (partner 1 µM) in the records?
A) 0.512
